Molecular target: MNK2 (Homo sapiens (Human), UniProt Q9HBH9)
Sequence (Q9HBH9 84-388): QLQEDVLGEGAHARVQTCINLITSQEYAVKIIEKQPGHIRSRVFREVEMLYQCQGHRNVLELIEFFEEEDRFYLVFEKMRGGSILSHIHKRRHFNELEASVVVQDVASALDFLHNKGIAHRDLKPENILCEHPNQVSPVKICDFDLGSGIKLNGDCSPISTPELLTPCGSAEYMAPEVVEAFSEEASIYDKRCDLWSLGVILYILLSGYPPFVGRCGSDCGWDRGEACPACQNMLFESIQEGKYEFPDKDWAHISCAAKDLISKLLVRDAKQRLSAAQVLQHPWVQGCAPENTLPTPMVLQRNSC
Assay: In vitro MNK kinase assay (Caliper LabChip mobility shift)
Format: biochemical
Settings: enzymatic, 250 μM ATP; read-out: IC50 Mnk2
ASSAY_METRIC: IC50

Problem: Annotate the compound "CN1CCN(C(=O)c2ccc(-c3ccc4ncc(-c5ccc(C#N)cc5)n4c3)cc2F)CC1" with its measured IC50.
Solution: < 100 nM

Problem: Look up and report measured IC50 for this entry: "CC(=O)N1CCCCC12CCN(C(=O)c1ccc(-c3ccc4ncc(-c5ccc(C#N)cc5)n4c3)cc1)CC2"
Solution: < 100 nM

Problem: State, in one line, measured IC50 of "Cc1cc2ncc(-c3ccc(C#N)cc3)n2cc1-c1ccc(C(=O)N2CCC(C)(N)CC2)cc1"
Solution: < 100 nM

Problem: Return reported IC50. Input compound: "COc1cc(-c2ccc3ncc(-c4ccc(C#N)cc4)n3c2)ccc1C(=O)N1CCOCC1"
Solution: < 100 nM

Problem: Retrieve IC50 measured for "CN1CCN(C(=O)c2ccc(-c3ccc4ncc(-c5ccc6[nH]cnc6c5)n4n3)cc2)CC1" and print it.
Solution: < 100 nM

Problem: Please indicate IC50 recorded for "N#Cc1ccc(-c2cnc3ccc(-c4ccc(C(=O)N5CCOCC5)c(F)c4)cn23)cc1"
Solution: < 1000 nM

Problem: Supply recorded IC50 for "N#Cc1ccc(-c2cnc3ccc(-c4ccc(C(=O)N5CCNCC5)c(O)c4)cn23)cc1" here.
Solution: < 100 nM

Problem: Entry "CNC1CCN(C(=O)c2ccc(-c3cn4c(-c5ccc(C#N)cc5)cnc4cn3)cc2)CC1" needs its IC50 filled in; supply it.
Solution: < 1000 nM

Problem: // Input: "CN1CCN(C(=O)c2ccc(-c3ccc4ncc(-c5ccc(C#N)cc5)n4c3)c(F)c2)CC1" . Output its IC50 only.
Solution: < 100 nM

Problem: Respond only with IC50 recorded for "CN1CCN(C(=O)c2ccc(-c3ccc4ncc(-c5ccc6[nH]ncc6c5)n4n3)cc2)CC1"
Solution: < 100 nM

Problem: Output measured IC50 for this item: "N#Cc1ccc(-c2cnc3ccc(-c4ccc(C(=O)N5CCOCC5)c(O)c4)cn23)cc1"
Solution: < 100 nM

Problem: Give the value of IC50 reported for the following: "CCN(CC)C1(C)CCN(C(=O)c2ccc(-c3ccc4ncc(-c5ccc(C#N)cc5)n4c3)cc2)CC1"
Solution: < 100 nM

Problem: Look up and state reported IC50 for "CN1CCN(C(=O)c2ccc(-c3ccc4ncc(-c5ccc(O)cc5)n4c3)cc2)CC1"
Solution: < 100 nM

Problem: Give the measured IC50 for "CN1CCN(C(=O)c2ccc(-c3ccc4ncc(-c5ccc(C#N)cc5)n4n3)cc2[N+](=O)[O-])CC1"
Solution: < 100 nM

Problem: Hello, please tell me recorded IC50 for this one: "CCN1CCN(C(=O)c2ccc(-c3cn4c(-c5ccc(Cl)cc5)cnc4cn3)cc2)CC1"
Solution: < 1000 nM

Problem: Recall and state the measured IC50 for "CC(=O)NC1(C)CCN(C(=O)c2ccc(-c3ccc4ncc(-c5ccc(C#N)cc5)n4c3)cc2)CC1" .
Solution: < 100 nM

Problem: Provide one value: measured IC50 of "CN1CCCCC12CCN(C(=O)c1ccc(-c3ccc4ncc(-c5ccc(C#N)cc5)n4c3)cc1)CC2"
Solution: < 100 nM
